- Test system: c-kit (Homo sapiens, UniProt P10721)
- Construct: MO7e (human megakaryocytic leukemia cell line) which had been arrested for 20 hr; endogenous in cells; host or cells: MO7e human megakaryocytic leukemia cell line
- Sequence (P10721 26-976): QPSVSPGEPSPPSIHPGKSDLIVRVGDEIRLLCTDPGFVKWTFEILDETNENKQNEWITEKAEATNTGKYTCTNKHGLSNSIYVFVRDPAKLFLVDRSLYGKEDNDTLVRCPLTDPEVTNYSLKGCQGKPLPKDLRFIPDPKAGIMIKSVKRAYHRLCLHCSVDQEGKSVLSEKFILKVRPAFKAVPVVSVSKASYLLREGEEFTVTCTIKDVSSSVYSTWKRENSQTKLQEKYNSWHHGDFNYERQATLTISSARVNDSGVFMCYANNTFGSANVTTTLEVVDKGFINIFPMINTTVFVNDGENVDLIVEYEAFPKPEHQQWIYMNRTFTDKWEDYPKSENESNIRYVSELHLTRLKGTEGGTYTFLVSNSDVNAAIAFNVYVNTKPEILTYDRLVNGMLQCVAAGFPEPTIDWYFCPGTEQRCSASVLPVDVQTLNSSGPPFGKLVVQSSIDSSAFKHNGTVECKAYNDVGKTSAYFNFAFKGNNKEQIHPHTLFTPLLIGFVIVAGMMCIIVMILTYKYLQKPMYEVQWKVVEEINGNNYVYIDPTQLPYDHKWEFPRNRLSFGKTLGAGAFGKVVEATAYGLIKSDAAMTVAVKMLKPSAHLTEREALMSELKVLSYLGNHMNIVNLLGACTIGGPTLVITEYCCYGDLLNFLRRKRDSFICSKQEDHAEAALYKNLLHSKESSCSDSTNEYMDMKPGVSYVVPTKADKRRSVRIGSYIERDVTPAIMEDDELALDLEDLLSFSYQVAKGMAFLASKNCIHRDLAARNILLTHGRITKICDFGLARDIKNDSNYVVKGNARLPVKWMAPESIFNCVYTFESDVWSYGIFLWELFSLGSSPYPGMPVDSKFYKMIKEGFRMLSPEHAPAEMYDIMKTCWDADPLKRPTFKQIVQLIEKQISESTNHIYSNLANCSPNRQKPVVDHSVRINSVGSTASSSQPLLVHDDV
- Assay name: Inhibitory activity against c-kit autophosphorylation (MO7e cells, h-SCF)
- Format: cell-based
- Applied conditions: Mo7e, figure in parentheses in −( ); at 1000 nM
Observable: inhibition at 1 µM (%)

Below: 10 compounds and their reported inhibition at 1 µM.
Compound	Unit string	inhibition at 1 µM
COc1cc2nccc(Oc3ccc(S(=O)(=O)CCOc4ccc(C)cc4)cc3)c2cc1OC	%	1
CCCCC(CCCC)OC(=O)Nc1cc(C)c(Oc2ccnc3cc(OC)c(OC)cc23)cc1C	%	36
COc1cc2nccc(Oc3cc(C)c(NC(=O)OCc4ccc(C(C)(C)C)cc4)cc3C)c2cc1OC	%	33
COc1ccc(C(=O)NC(=S)Nc2ccc(Oc3ccnc4cc(OC)c(OC)cc34)c(Cl)c2)cc1	%	39
COc1cc2nccc(Oc3ccc(NC(=S)NC(=O)c4c(Cl)cccc4Cl)c(F)c3)c2cc1OC	%	24
COc1cc2nccc(Oc3ccc(NC(=S)NC(=O)c4ccccc4)c(C)c3C)c2cc1OC	%	30
COc1cc2ncnc(Oc3ccc(NC(=S)NC(=O)c4ccc(F)cc4F)cc3)c2cc1OC	%	38
CCCc1ccc(C(=O)NC(=S)Nc2ccc(Oc3ccnc4cc(OC)c(OC)cc34)cc2F)cc1	%	47
COc1cc2nccc(Oc3ccc(NC(=S)NC(=O)c4c(Cl)cccc4Cl)cc3)c2cc1OC	%	0
COc1cc2ncnc(Oc3ccc(NC(=S)NC(=O)c4ccc([N+](=O)[O-])cc4)cc3)c2cc1OC	%	32

A. COc1cc2nccc(Oc3ccc(NC(=O)OC(C)c4cccc(C(F)(F)F)c4)c(C)c3C)c2cc1OC (stereo not shown)
B. COc1cc2nccc(Oc3ccc(NCCCOc4ccccc4)c(C)c3C)c2cc1OC
## Input Could you tell me which of A and B has the lower inhibition at 1 µM reading? Lab log: write the label of the selected item as the result.
## Output B

a. COc1cc2nccc(Oc3ccc(NC(=S)NC(=O)c4ccccc4C)c(C)c3)c2cc1OC
b. COc1cc2nccc(Oc3ccc(S(=O)(=O)CCOc4cccc(Cl)c4)cc3)c2cc1OC
## Input Higher inhibition at 1 µM between a and b ? Lab log: write the label of the selected item as the result.
## Output a

----------
- Test system: PDGF-Ra (Homo sapiens, UniProt P16234)
- Construct: host or cells: G-292 human osteosarcoma cells
- Sequence (P16234 24-1089): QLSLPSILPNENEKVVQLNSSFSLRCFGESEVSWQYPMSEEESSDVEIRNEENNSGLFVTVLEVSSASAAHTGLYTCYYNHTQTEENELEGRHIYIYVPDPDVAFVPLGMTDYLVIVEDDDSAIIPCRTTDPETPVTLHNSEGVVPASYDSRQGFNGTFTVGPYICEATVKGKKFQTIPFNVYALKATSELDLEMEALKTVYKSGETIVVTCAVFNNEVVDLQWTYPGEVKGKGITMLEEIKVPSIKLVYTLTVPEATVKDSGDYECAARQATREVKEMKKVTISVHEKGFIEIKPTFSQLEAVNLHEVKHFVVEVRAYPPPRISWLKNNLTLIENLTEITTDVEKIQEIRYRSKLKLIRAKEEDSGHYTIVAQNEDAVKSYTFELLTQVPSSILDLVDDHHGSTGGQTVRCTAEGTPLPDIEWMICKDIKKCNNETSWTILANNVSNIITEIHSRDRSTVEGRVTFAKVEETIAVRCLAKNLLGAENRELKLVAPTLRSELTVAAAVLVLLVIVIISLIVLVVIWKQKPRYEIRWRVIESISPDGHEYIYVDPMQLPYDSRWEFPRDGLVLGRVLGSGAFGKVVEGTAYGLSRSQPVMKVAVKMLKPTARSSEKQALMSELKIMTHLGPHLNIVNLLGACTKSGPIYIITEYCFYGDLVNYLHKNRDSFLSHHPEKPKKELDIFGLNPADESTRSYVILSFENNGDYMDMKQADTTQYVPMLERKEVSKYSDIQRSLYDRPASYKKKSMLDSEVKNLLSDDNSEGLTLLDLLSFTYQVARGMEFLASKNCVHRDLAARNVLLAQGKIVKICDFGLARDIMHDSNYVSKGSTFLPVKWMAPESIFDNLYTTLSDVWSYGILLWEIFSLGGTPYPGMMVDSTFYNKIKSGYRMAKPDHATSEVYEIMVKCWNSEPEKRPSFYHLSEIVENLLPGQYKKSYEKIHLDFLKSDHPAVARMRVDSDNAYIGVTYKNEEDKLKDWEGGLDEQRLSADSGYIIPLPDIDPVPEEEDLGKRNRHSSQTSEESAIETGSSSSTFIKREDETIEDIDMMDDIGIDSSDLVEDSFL
- Assay name: Inhibitory activity against PDGF-Ra phosphorylation by PDGF-AA stimulation using G292
- Type: cell-based
- Applied conditions: > means inhibition at indicated concentration not more than 50%, < and << not less than 50%; read-out: PDGF (E) IC50
Observable: IC50 (nM)

P. CCCC(CCC)OC(=O)N(CC)c1ccc(Oc2ncnc3cc(OC)c(OC)cc23)cc1Cl
Q. CCCCC(=O)NC(=S)Nc1ccc(Oc2ccnc3cc(OC)c(OC)cc23)c(Cl)c1
## Input Could you tell me which of P and Q has the lower IC50 reading? Lab log: write the label of the selected item as the result.
## Output Q

I. COc1cc2nccc(Oc3cc(C)c(NC(=O)NCCN(C(C)C)C(C)C)cc3C)c2cc1OC
II. COc1cc2nccc(Oc3ccc(NC(=S)NC(=O)Cc4ccccc4)c(F)c3)c2cc1OC
III. COc1cc2nccc(Oc3ccc(NC(=S)NC(=O)c4ccc(-c5ccccc5)cc4)cc3F)c2cc1OC
IV. CCC(Oc1ccccc1)C(=O)NC(=S)Nc1ccc(Oc2ccnc3cc(OC)c(OC)cc23)c(Cl)c1 (centres unmarked)
## Input Order the records by IC50, with each subsequent value no larger than the one before. Your reply should list the labels following the order given in the request.
## Output IV, I, III, II

1. COc1cc2nccc(Oc3ccc(NC(=S)NC(=O)CCCCc4ccccc4)cc3)c2cc1OC
2. COc1cc(Oc2ncnc3cc(OC)c(OC)cc23)ccc1NC(=O)OCCc1ccccn1
## Input Could you tell me which of 1 and 2 has the lower IC50 reading? Lab log: write the label of the selected item as the result.
## Output 2
